# activity coefficient listing for each entry below
- TEST_SUMMARY: activity coefficient (dimensionless); of the first substance listed, at infinite dilution; xn = mol fraction of the nth substance listed
- CONDITIONS: 308 K; 101.33 kPa; Liquid; Chromatography; x1 = 0

| MOLECULE | activity coefficient |
| --- | --- |
| C=CCCCC [hex-1-ene] + CCCCCCCCCC[N+](C)(C)CCCCCCCCCC.F[B-](F)(F)F | 1.51 |
| CCCCCCCC [octane] + CCCCCCCCCC[N+](C)(C)CCCCCCCCCC.F[B-](F)(F)F | 4.41 |
| CCCC [butane] + CCCCCCCCCC[N+](C)(C)CCCCCCCCCC.F[B-](F)(F)F | 1.21 |
| C#CCCCCC [1-heptyne] + CCCCCCCCCC[N+](C)(C)CCCCCCCCCC.F[B-](F)(F)F | 0.892 |
| CO [methanol] + CCCCCCCCCC[N+](C)(C)CCCCCCCCCC.F[B-](F)(F)F | 0.294 |
| C#CCCCC [1-hexyne] + CCCCCCCCCC[N+](C)(C)CCCCCCCCCC.F[B-](F)(F)F | 0.85 |
| C1CCCC1 [cyclopentane] + CCCCCCCCCC[N+](C)(C)CCCCCCCCCC.F[B-](F)(F)F | 1.21 |
| C1CCCCC1 [cyclohexane] + CCCCCCCCCC[N+](C)(C)CCCCCCCCCC.[O-][Cl+3]([O-])([O-])[O-] | 2.05 |
| CCO [ethanol] + CCCCCCCCCC[N+](C)(C)CCCCCCCCCC.F[B-](F)(F)F | 0.539 |
